protocolDetails: Cytotoxicity in CNS SF-539 cell line.
Type: functional
assayConditions: Homo sapiens
Answer each item with its documented log10 of GI50.
Transform log10 | Measure GI50 | Unit µM

# batch: return log10 of GI50 for each of the 6 compounds below
1. COc1cc2c(cc1OC)[C@H]1C(=O)c3cc4c(cc3[C@H]1N(CC#N)C2=O)OCO4
2. COc1cc2c(cc1OC)[C@H]1C(=O)c3cc4c(cc3[C@H]1N(CCCCl)C2=O)OCO4
3. COC(=O)CCCN1C(=O)c2cc(OC)c(OC)cc2[C@H]2C(=O)c3cc4c(cc3[C@H]21)OCO4
4. CCC[n+]1cc2cc(OC)c(OC)cc2c2c1-c1cc3c(cc1C2)OCO3.[Cl-]
5. C/C=C(/C=O)CCN1C(=O)c2cc(OC)c(OC)cc2[C@H]2C(=O)c3cc4c(cc3[C@H]21)OCO4
6. CCCCN1C(=O)c2cc(OC)c(OC)cc2[C@H]2C(=O)c3cc4c(cc3[C@H]21)OCO4

a:
1: 0.33; 2: -1.70; 3: -0.15; 4: 0.03; 5: -0.68; 6: -0.49

---

protocolDetails: Cytotoxicity in colon HCT116 cell line.
Format: functional
assayConditions: Homo sapiens, HCT-116
reportedProperty: log10 of GI50 (log10 of the value in µM)
Transform log10 | Measure GI50 | Unit µM

Would you please look over these solved cases?
# smilesEntry, log10 of GI50
records = [
    ("COc1cc2c(cc1OC)[C@H]1C(=O)c3cc4c(cc3[C@H]1N(CCCBr)C2=O)OCO4", -1.15),
    ("CCOC(=O)CCCN1C(=O)c2cc(OC)c(OC)cc2[C@H]2C(=O)c3cc4c(cc3[C@H]21)OCO4", 0.26),
    ("COc1cc2c(cc1OC)[C@H]1C(=O)c3c(ccc4ccccc34)[C@H]1N(CCCCl)C2=O", 0.81),
    ("COc1cc2c(cc1OC)[C@H]1C(=O)c3cc4c(cc3[C@H]1N(CCCCl)C2=O)OCO4", -0.80),
    ("COc1cc2c(cc1OC)[C@H]1C(=O)c3c(ccc4ccccc34)[C@H]1N(CCCBr)C2=O", 0.60),
]

# batch: return log10 of GI50 for each of the 3 molecules below
1. CCCCN1C(=O)c2cc(OC)c(OC)cc2[C@H]2C(=O)c3cc4c(cc3[C@H]21)OCO4
2. CCCN1C(=O)c2cc(OC)c(OC)cc2[C@H]2C(=O)c3cc4c(cc3[C@H]21)OCO4
3. C/C=C(/C=O)CCN1C(=O)c2cc(OC)c(OC)cc2[C@H]2C(=O)c3cc4c(cc3[C@H]21)OCO4

a:
1: -0.96; 2: -0.41; 3: -0.60

---

protocolDetails: Cytotoxicity in lung HOP-62 cell line.
Type: functional
assayConditions: Homo sapiens
reportedProperty: log10 of GI50 (log10 of the value in nM)
Transform log10 | Measure GI50 | Unit nM

# smilesEntry, log10 of GI50
measured = [
    ("COc1cc2c(cc1OC)[C@H]1C(=O)c3cc4c(cc3[C@H]1N(CC#N)C2=O)OCO4", 3.73),
    ("COc1cc2c(cc1OC)[C@H]1C(=O)c3c(ccc4ccccc34)[C@H]1N(CCCBr)C2=O", 3.16),
    ("CCC[n+]1cc2cc(OC)c(OC)cc2c2c1-c1cc3c(cc1C2)OCO3.[Cl-]", 3.60),
    ("COc1cc2c(cc1OC)[C@H]1C(=O)c3cc4c(cc3[C@H]1N(Cc1ccccc1)C2=O)OCO4", 3.47),
    ("CCCC[n+]1cc2cc(OC)c(OC)cc2c2c1-c1cc3c(cc1C2)OCO3.[Cl-]", 3.49),
]

# batch: return log10 of GI50 for each of the 2 compounds below
1. CCCCN1C(=O)c2cc(OC)c(OC)cc2[C@H]2C(=O)c3cc4c(cc3[C@H]21)OCO4
2. CCOC(=O)CCCN1C(=O)c2cc(OC)c(OC)cc2[C@H]2C(=O)c3cc4c(cc3[C@H]21)OCO4

a:
[2.65, 3.35]

q: Give its log10 of GI50 value. Item: "COc1cc2c(cc1OC)[C@H]1C(=O)c3cc4c(cc3[C@H]1N(CCCCl)C2=O)OCO4"
a: 1.90
